kon values by entry
- tgt: T1, recombinant human GM-CSF protein (human, UniProt P04141 18-144)
- T1 construct: Bought recombinant protein (Genscript); also called biotinylated human GM-CSF protein
- test.summary: SPR Biacore T200, antibody captured by anti-human Fc, GM-CSF as analyte, 25 C, 1:1 model
Please state the figure in M⁻¹ s⁻¹; there is no need to write the unit.

[[record]]
binder = "Hu23F4-6 (antibody, V domains shown, Humanized) VH: EVQLVQSGAEVKKPGATVKISCKVSGYTFTSHYLHWVQQAPGKGLEWMGWIFPGDDKTKYNEKFKGRVTITSDTSTDTAYMELSSLRSEDTAVYYCARGTKYLNWNFDVWGQGTTVTVSS VL: DIQLTQSPSFLSASVGDRVTITCKANQNVGTTLAWYQQKPGKAPKALIYSASYRYSGVPSRFSGSGSGTEFTLTISSLQPEDFATYYCHQYTTYPLTFGGGTKVEIK"
measured_attribute = "kon"
unit_tag = "M⁻¹ s⁻¹"
measured = 876000


Now consider a different binder.
Query: Item Hu23F4-36 (antibody, V domains shown, Humanized) VH: EVQLVQSGAEVKKPGASVKVSCKASDYTLTSHYLHWVRQAPGQGLEWIGWIFPGDDKTKYNEKFKGRATLTSDTSISTAYMELSRLRSDDTAVYYCARGTKYLNWNFDVWGQGTTVTVSS VL: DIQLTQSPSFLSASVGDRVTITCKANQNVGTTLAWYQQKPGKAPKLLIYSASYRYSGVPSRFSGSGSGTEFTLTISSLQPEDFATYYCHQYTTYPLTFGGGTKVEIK has what recorded kon?
Result: 1.27e+06
